Field: GI50. Provide a value for each of the compounds that follow.
- System: HT-29
- experimental_details: NCI tumour cell line growth inhibition, 48 h
Active and inactive are the calls of the source. Cut-off read from the data, not from the text of the source: active = GI50 up to about 1.1 µM and inactive = higher.

Problem: # GI50 lookup, item CCCCCCCCCCCCCCCCP(=O)(O)OP(=O)(O)OCC1OC(n2cnc3c(N)ncnc32)C(O)C1O (stereo not drawn)
Solution: 20.3 µM (inactive)

Problem: # GI50 lookup, item Cc1cc(Nc2ccc(NS(C)(=O)=O)cc2)c2c(ccc3[nH]ccc32)n1
Solution: 27.5 µM (inactive)

Problem: # GI50 lookup, item Cn1c(C(C#N)c2nc(Cl)ncc2Br)nc2ccccc21 (stereo not drawn)
Solution: > 100 µM (inactive)

----------
- System: K562
- experimental_details: NCI tumour cell line growth inhibition, 48 h
Active and inactive are the calls of the source. Cut-off read from the data, not from the text of the source: active = GI50 up to about 1.1 µM and inactive = higher.
Field: GI50. Provide a value for each of the compounds that follow.

Problem: # GI50 lookup, item COc1ccc(OC)c(NC(=O)C(=O)C(C(C)=O)c2nc3ccc(Cl)cc3nc2O)c1 (stereo not given)
Solution: > 50 µM (inactive)

Problem: # GI50 lookup, item COc1ccc2c(c1)nc1n2C(c2c(F)cccc2F)SC1 (stereo not given)
Solution: 43.8 µM (inactive)

Problem: # GI50 lookup, item CCSC1=C(C#N)C2(CCCCC2)C2=C(O)CC(C)(C)CC2=N1
Solution: > 100 µM (inactive)

Problem: # GI50 lookup, item CCSc1[nH]c(/N=C(/NC(=O)c2ccccc2)NC(C)C)c(C(N)=O)c1C(N)=O
Solution: > 10 µM (inactive)

Problem: # GI50 lookup, item CCNC1=C(NC(=O)CC)C(=O)c2ccccc2C1=O
Solution: > 100 µM (inactive)

Problem: # GI50 lookup, item C1=Cc2ccccc2C1.C=C(C)c1ccccc1.[N-]=[N+]=Nc1ccccc1
Solution: 46.9 µM (inactive)

Problem: # GI50 lookup, item O=c1c2cc(Br)ccc2oc2ccc(Br)cc12
Solution: > 100 µM (inactive)

Problem: # GI50 lookup, item Clc1ccc(/C=C/c2nc(Cl)c(-c3ccc(Cl)cc3)c(Cl)n2)cc1
Solution: 32.1 µM (inactive)

Problem: # GI50 lookup, item CN1C(=O)c2ccccc2C(O)(c2ccccc2)C1(O)c1ccccc1 (stereo not given)
Solution: > 100 µM (inactive)

Problem: # GI50 lookup, item CCOC(=O)C1=NN(c2ccc([N+](=O)[O-])cc2)[C@@]2(C)C[C@]3(c4ccccc4)N(c4ccc([N+](=O)[O-])cc4)N=C(C(=O)OCC)N3c3ccccc3N12
Solution: > 100 µM (inactive)

Problem: # GI50 lookup, item N#CCCN(C(=O)Nc1ccccc1)[C@H]1CCCC[C@@H]1N(C(=O)Nc1ccccc1)c1ccccc1
Solution: 49.1 µM (inactive)

Problem: # GI50 lookup, item CSc1cc(-c2cc3ccccc3o2)oc(=O)c1C#N
Solution: > 100 µM (inactive)

Problem: # GI50 lookup, item N/N=C1\C(=O)N(c2ccc(Cl)cc2Cl)C(=O)C(=O)C1c1nc2ccccc2o1 (stereo not given)
Solution: > 100 µM (inactive)

Problem: # GI50 lookup, item C=C(CCOC)CCC1CCCCC(=C)[C@H]1O (stereo not given in full)
Solution: > 100 µM (inactive)

Problem: # GI50 lookup, item CN(c1ccc(Cl)cc1)S(=O)(=O)c1ccccc1
Solution: 36.8 µM (inactive)

Problem: # GI50 lookup, item O=C1NC2(CCN(CCCC3(c4ccc(F)cc4)OCCO3)CC2)Oc2ccccc21
Solution: 64.4 µM (inactive)

Problem: # GI50 lookup, item C=C(C)[C@@H]1CC[C@]2(C(=O)OC)CC[C@]3(C)[C@H](CC[C@@H]4[C@@]5(C)CC[C@H](O)C(C)(C)[C@@H]5CC[C@]43C)[C@@H]12 [METHYL BETULINATE]
Solution: 20.5 µM (inactive)

Problem: # GI50 lookup, item O=C1NC(c2ccc(O)cc2)C2CCC1C2 (stereo not given)
Solution: > 100 µM (inactive)

Problem: # GI50 lookup, item CC(C)CNP(=O)(NCC(C)C)Oc1ccc(CC(NC(=O)OCc2ccccc2)C(=O)OCc2ccccc2)cc1 (stereo not given)
Solution: 20 µM (inactive)

Problem: # GI50 lookup, item CCNc1cnc2c(n1)c(=O)n(C)c(=O)n2C
Solution: > 100 µM (inactive)

----------
Field: GI50. Provide a value for each of the compounds that follow.
- Test system: SK-MEL-2
- experimental_details: NCI tumour cell line growth inhibition, 48 h
Activity calls are given as the source filed them. Rule as the data show it: active = GI50 up to about 1.1 µM and inactive = higher.

Problem: # GI50 lookup, item COC(=O)c1cc(C(=O)OC)c(CC(=O)C(=O)NC2C3CC4CC(C3)CC2C4)nc1CC(=O)C(=O)NC1C2CC3CC(C2)CC1C3 (stereo not given)
Solution: > 100 µM (inactive)

Problem: # GI50 lookup, item Nn1c(S)nnc1-c1ccccc1Nc1ccccc1-c1nnc(S)n1N
Solution: > 50 µM (inactive)

Problem: # GI50 lookup, item C=C1C(=O)OC2CC(C)C3(O)CCC(=O)C3(C)CC12 (stereo not given)
Solution: 22.2 µM (inactive)

Problem: # GI50 lookup, item O=C(c1cc2c(c3ccccc13)NCCN=C2C(F)(F)F)C(F)(F)F
Solution: 18.7 µM (inactive)

Problem: # GI50 lookup, item CCN1CN(c2ccccc2)C2(CCN(CC(CC3OCCO3)c3ccc(F)cc3)CC2)C1=O (stereo not given)
Solution: 20.1 µM (inactive)

----------
Field: GI50. Provide a value for each of the compounds that follow.
- System: UO-31
- experimental_details: NCI tumour cell line growth inhibition, 48 h
The source made the active and inactive calls. No stated cut-off is given here; in the data, active = GI50 up to about 1.1 µM and inactive = higher.

Problem: # GI50 lookup, item Cc1cc(CC(=O)NCCO)n(CCO)c(=O)c1
Solution: > 100 µM (inactive)

Problem: # GI50 lookup, item CC(C)(C)OC(=O)c1ccc(NCC2=CC(=O)C=CC2=O)cc1
Solution: 7.11 µM (inactive)

Problem: # GI50 lookup, item CNS(=O)(=O)NN(C)S(=O)(=O)c1ccc(F)cc1
Solution: > 100 µM (inactive)

----------
- System: COLO 205
- experimental_details: NCI tumour cell line growth inhibition, 48 h
Active and inactive are the calls of the source. No stated cut-off is given here; in the data, active = GI50 up to about 1.1 µM and inactive = higher.
Field: GI50. Provide a value for each of the molecules that follow.

Problem: # GI50 lookup, item O=C1O/C(=C(\Br)c2cccc3ccccc23)c2ccccc21
Solution: 28.3 µM (inactive)

Problem: # GI50 lookup, item O=C(NN1CCCCC1)c1cc2cc(CCl)ccc2oc1=O
Solution: 17.9 µM (inactive)

Problem: # GI50 lookup, item O=C1CCCC/C(=C/c2ccccc2)N1
Solution: > 100 µM (inactive)

Problem: # GI50 lookup, item CCN(CC)c1ccc(/N=N/c2ccc(-c3nc4cccn(C)c-4n3)cc2)cc1
Solution: 14.3 µM (inactive)

Problem: # GI50 lookup, item CN(C)CCCN1c2ccc(O)cc2Sc2ccc(Cl)cc21 [7-HYDROXYCHLORPROMAZINE]
Solution: 20.8 µM (inactive)

Problem: # GI50 lookup, item OC1(c2ccccc2)CCN(Cc2c[nH]c3ccccc23)CC1
Solution: 17.5 µM (inactive)

Problem: # GI50 lookup, item COc1cc(O)cc(/C=C/c2ccc(O)cc2)c1
Solution: > 100 µM (inactive)

Problem: # GI50 lookup, item O=C1N/C(=N/N=C/c2c[nH]c3ccccc23)N/C1=C\c1cccs1
Solution: > 100 µM (inactive)

Problem: # GI50 lookup, item Clc1cccc(C2SCc3nc4ccccc4n32)c1 (stereo unspecified)
Solution: 4.79 µM (inactive)

Problem: # GI50 lookup, item O=C(O)c1cccc(NC(C(=O)c2ccccc2)c2ccccc2)c1 (stereo unspecified)
Solution: > 100 µM (inactive)

Problem: # GI50 lookup, item COc1cc(C2c3cc4c(cc3OC(O)C2C)OCO4)cc(OC)c1O (stereo unspecified)
Solution: 18.2 µM (inactive)

----------
- System: M14
- experimental_details: NCI tumour cell line growth inhibition, 48 h
Calls of active or inactive are those of the source. Cut-off read from the data, not from the text of the source: active = GI50 up to about 1.1 µM and inactive = higher.
measurement_type: GI50

Problem: Kindly state the measured GI50 obtained for O=C(COc1ccc(Cl)c(Cl)c1)N(Cc1ccccc1)Cc1ccc[n+](Cc2ccc(Cl)cc2S(=O)(=O)F)c1 with M14.
Solution: 38.5 µM (inactive)

Problem: Kindly state the measured GI50 obtained for O[C@@]1(c2cccs2)c2cccc(Cl)c2[C@](O)(c2cccs2)c2cccc(Cl)c21 with M14.
Solution: 15.4 µM (inactive)

Problem: Kindly state the measured GI50 obtained for O=C1N/C(=N/N=C/c2c[nH]c3ccccc23)N/C1=C\c1cccs1 with M14.
Solution: 75.3 µM (inactive)

Problem: Kindly state the measured GI50 obtained for CC(=O)NC1C(OCC(=O)NCCNc2ccc([N+](=O)[O-])c3[nH]c4ccccc4c(=O)c23)C(O)C(CO)OC1(C)OCc1ccccc1 (centres undefined) with M14.
Solution: > 100 µM (inactive)

Problem: Kindly state the measured GI50 obtained for Cc1csc2nc(-c3ccncc3)cn12 with M14.
Solution: > 68.2 µM (inactive)

Problem: Kindly state the measured GI50 obtained for Cc1cc(Nc2ccc(NS(C)(=O)=O)cc2)c2c(ccc3[nH]ccc32)n1 with M14.
Solution: 16.6 µM (inactive)

Problem: Kindly state the measured GI50 obtained for CC1(C)OC(=O)C(C)(C)C(=O)O1 with M14.
Solution: > 100 µM (inactive)

Problem: Kindly state the measured GI50 obtained for CCCCSC1=N/C(=C\c2ccco2)C(=O)N1 with M14.
Solution: 53.8 µM (inactive)

Problem: Kindly state the measured GI50 obtained for COC(C)(C)[C@H](O)C(O)CC(C)[C@@H]1CCC23CC12CCC1[C@@]2(C)CCC(OC(C)=O)C(C)(C)C2CC(OC2OC(COC(C)=O)C(O)C(O)C2O)[C@]13C (some centres undefined) with M14.
Solution: 2.77 µM (inactive)

Just for reference, ChEMBL document CHEMBL1201862 is where these values come from.
